# Tested on: OPM2 cells
# METHOD_NOTES: Cell proliferation assay (ViaLight, cellular ATP)
# Assay type: cell-based
# CONDITION_INFO: Homo sapiens, OPM-2, 120 h, 5 days, 5 μM to 1 nM
Listing: GI50 of selected molecules
OBSERVED_PROPERTY: GI50

INSERT INTO measurements (molecule, system_under_test, observed_property, result) VALUES
  ('CC(=O)N1c2ccc(-c3ccc(CN(C)C(=O)c4sc5c(N6CCOCC6)nc(-c6cnc(N)nc6)nc5c4C)cc3)cc2CC[C@@H]1C', 'OPM2 cells', 'GI50', '> 500 nM'),
  ('CC(=O)N1c2ccc(-c3ccc(CNC(=O)c4cn5cc(-c6cnc(N)nc6)nc(N6CCOCC6)c5n4)s3)cc2CCC1C (stereo not drawn)', 'OPM2 cells', 'GI50', '≤ 100 nM'),
  ('CC(=O)N1c2ccc(-c3ccc(NC(=O)CNC(=O)c4sc5c(N6CCOCC6)nc(-c6cnc(N)nc6)nc5c4C)cc3)cc2CC[C@@H]1C', 'OPM2 cells', 'GI50', '> 500 nM'),
  ('CC(=O)N1c2ccc(-c3cccc(C(=O)NCc4cn5cc(-c6cnc(N)nc6)nc(N6CCOCC6)c5n4)c3)cc2CC[C@@H]1C', 'OPM2 cells', 'GI50', '100 to 500 nM'),
  ('COc1ccc(-c2cn3cc(C(=O)NCc4ccc(-c5ccc6c(c5)CC[C@H](C)N6C(C)=O)cc4)nc3c(N3CCOCC3)n2)cn1', 'OPM2 cells', 'GI50', '100 to 500 nM'),
  ('CC(=O)N1c2ccc(-c3ccc(CNC(=O)c4cn5cc(-c6cnc(N)nc6)cc(N6CCOCC6)c5n4)cc3)cc2CC[C@@H]1C', 'OPM2 cells', 'GI50', '≤ 100 nM');
